Every entry's value here was drawn from paper PMC12663294.

# Tested on: active serine hydrolases (FP-reactive bands, ~62–70 kDa) in An. gambiae homogenates
# Assay type: biochemical, Anopheles gambiae (Kisumu strain)
# CONDITION_DESCRIPTION: read-out: IC₅₀ (FP-TAMRA labelled ~62–70 kDa band intensity)
READOUT_NAME: IC50

> print(dat)
                    compound.smiles  readout.name    result
1  CCN(CC)c1nc(C)cc(OP(=S)(OC)OC)n1          IC50  ~10.6 µM

###

# TESTED_TARGET: recombinant An. coluzzii Coeae6g (Anopheles coluzzii, UniProt A0A6E8VQK1)
# Sequence (A0A6E8VQK1 1-582): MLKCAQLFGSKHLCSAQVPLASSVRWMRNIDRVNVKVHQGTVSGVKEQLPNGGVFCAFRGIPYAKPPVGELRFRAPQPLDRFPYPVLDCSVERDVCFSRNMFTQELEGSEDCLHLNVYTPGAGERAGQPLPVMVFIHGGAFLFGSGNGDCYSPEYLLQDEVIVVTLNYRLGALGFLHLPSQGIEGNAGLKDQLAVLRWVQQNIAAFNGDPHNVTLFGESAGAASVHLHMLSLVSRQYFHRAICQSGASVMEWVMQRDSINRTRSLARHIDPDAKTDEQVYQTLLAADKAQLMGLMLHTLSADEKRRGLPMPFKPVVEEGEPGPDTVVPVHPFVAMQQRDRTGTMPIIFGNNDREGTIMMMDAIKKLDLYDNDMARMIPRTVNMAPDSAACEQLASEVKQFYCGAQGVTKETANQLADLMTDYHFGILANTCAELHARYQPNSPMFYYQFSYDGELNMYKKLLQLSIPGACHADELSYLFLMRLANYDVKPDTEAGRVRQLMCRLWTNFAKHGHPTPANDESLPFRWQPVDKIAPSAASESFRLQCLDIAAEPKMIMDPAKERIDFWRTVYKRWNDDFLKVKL
# ASSAY_DETAILS: Insecticide inhibition of α-NA hydrolysis by recombinant Coeae6g
IC50 reference
READOUT_NAME: IC50 (µM)

> print(dat)
                                   compound  readout.name  modifier.sign  quantitative.result
1  CCOC(=O)CC(SP(=O)(OC)OC)C(=O)OCC (stereo not drawn)          IC50              =                 0.24
2                    CNC(=O)Oc1ccccc1OC(C)C          IC50              =                 3.52
3  CC1(C)[C@H](C(=O)O[C@H](C#N)c2cccc(Oc3ccccc3)c2)[C@@H]1C=C(Br)Br          IC50              >                  450
4               CNC(=O)Oc1cccc2c1OC(C)(C)O2          IC50              =                 7.27
5  CC1(C)C(C=C(Cl)Cl)C1C(=O)OCc1cccc(Oc2ccccc2)c1 (stereo not drawn)          IC50              =                  130
6  CCOC(=O)CC(SP(=S)(OC)OC)C(=O)OCC (stereo not drawn)          IC50              >                   45
